# Test system: 898857-211-R-J1-PDC complex spheroids, growth % test/control;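 also: spheroids exposed to compound for seven days before readout; 100% = DMSO vehicle control wells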
# experiment: Anticancer human tumor 898857-211-R-J1-PDC patient-derived melanoma cell line growth inhibition [RAS]
# cond: second compound 10 µM; first compound 0.316 µM; hits give low values
For each entry below, report its viability, T/C value.
// units = %; emit number, no label

Task: Return reported viability, T/C; argument: CC(Nc1ccc2c(c1)OCCn1cc(N3C(=O)OCC3C(F)F)nc1-2)C(N)=O (stereo not given) + C#Cc1c(F)ccc2cc(O)cc(-c3ncc4c(N5CC6CCC(C5)N6)nc(OCC56CCCN5CC(F)C6)nc4c3F)c12
Output: 47.1

Task: Return reported viability, T/C; argument: NC1c2ccccc2OC12CCN(c1cnc3c(N4CCCc5ncccc54)n[nH]c3n1)CC2 (stereo not given) + C#Cc1c(F)ccc2cc(O)cc(-c3ncc4c(N5CC6CCC(C5)N6)nc(OCC56CCCN5CC(F)C6)nc4c3F)c12
Output: 25.5

Task: Return reported viability, T/C; argument: C=CC(=O)N1CCN(c2nc(OCC3CCCN3C)nc3c(F)c(-c4nc(N)cc(C)c4C(F)(F)F)c(Cl)cc23)C(C)C1 (stereo not given) + C#Cc1c(F)ccc2cc(O)cc(-c3ncc4c(N5CC6CCC(C5)N6)nc(OCC56CCCN5CC(F)C6)nc4c3F)c12
Output: 21.3

Task: Return reported viability, T/C; argument: Cc1nc(N2CCC3(CC2)COC(C)C3N)c(CO)nc1Sc1ccnc(N)c1Cl (stereo not given) + C#Cc1c(F)ccc2cc(O)cc(-c3ncc4c(N5CC6CCC(C5)N6)nc(OCC56CCCN5CC(F)C6)nc4c3F)c12
Output: 49

Task: Return reported viability, T/C; argument: CCC(CC)c1cc(NC2CCC(N)C2)n2nccc2n1 (stereo not given) + C#Cc1c(F)ccc2cc(O)cc(-c3ncc4c(N5CC6CCC(C5)N6)nc(OCC56CCCN5CC(F)C6)nc4c3F)c12
Output: 30
